The measurements presented in this section are drawn from paper PMC5104457.

Test system: FADD (-/-) Jurkat cells
Experiment: Necroptosis assay: rescue from TNF-α induced cell death
Type: cell-based
Details: Homo sapiens; FADD deficient Jurkat cells, TNF-α 15 ng/ml overnight, average of duplicates; read-out: Necroptosis cell IC50
METRIC_NAME: IC50

> print(dat)
                                   compound   result
1  C[C@@H](Oc1cc(-c2cnn(C3CCNCC3)c2)cnc1N)c1c(Cl)ccc(F)c1Cl [Crizontinib, reference compound]  > 40 µM
2  Nc1nccnc1C(=O)O[C@@H](C(=O)Nc1ccc(F)cc1)c1ccccc1 [cpd 4]  > 40 µM
3  CC(=O)Nc1ccc(N(C)c2ccnc(Nc3cccc(S(N)(=O)=O)c3)n2)cc1 [cpd 2]  > 40 µM
4  CN(c1ccc(N)cc1)c1ccnc(Nc2cccc(S(N)(=O)=O)c2)n1 [cpd 3]  > 40 µM
5  COc1nccnc1NS(=O)(=O)c1ccc(NC(=O)/C=C/c2ccc([N+](=O)[O-])s2)cc1 [NSA, Necrosulfonamide, reference compound]   0.2 µM
